assay: toxic effect: dose at which first toxic symptoms such as cyanosis or changes in ECG occur; format: in vivo, rats (Sprague Dawley); conditions: first toxic symptoms such as cyanosis or changes in ECG
Result type: Toxic effect: Dose (dose producing a toxic effect) (mg/kg)
Write it as a number; the unit mg/kg goes unstated.

Below are worked cases with known answers.
FC(F)(F)c1cccc(CN2CC3CC(CN(Cc4ccccc4)C3)C2)c1 [H CF3 H 0]    215
Clc1ccc(CN2CC3CC(CN(Cc4ccccc4)C3)C2)cc1Cl [H Cl Cl 0]    464
Fc1ccc(CN2CC3CC(CN(Cc4ccccc4)C3)C2)cc1 [H H F 0]    215
c1ccc(CN2CC3CC(C2)CN(C(c2ccccc2)c2ccccc2)C3)cc1 [C6 H5 H H 0]    464
c1ccc(CN2CC3CC(C2)CN(CC(c2ccccc2)c2ccccc2)C3)cc1 [C6 H5 H H 1]    100

### Prompt Toxic effect: Dose (dose producing a toxic effect) for C=C[C@H]1C[N@@]2CC[C@H]1C[C@@H]2[C@@H](O)c1ccnc2ccc(OC)cc12 [Quinidine, reference compound] ?
### Response 464

### Prompt Record: Clc1cccc(CN2CC3CC(CN(Cc4ccccc4)C3)C2)c1 [H Cl H 0]
### Response 100
